# Test system: A375
# Assay Procedure: Apoptosis via Annexin V/PI staining, flow cytometry
# Type: cell-based
# Test Conditions: Homo sapiens, A-375, A375, 72 hr treatment
Measured pIC50 by item
The read-out pIC50 is expressed as -log10 of concentration in moles per litre.

Recorded pIC50, per entry:
Please tell me: pIC50 of `O=C(/C=C\n1cnc(-c2cc(C(F)(F)F)cc(C(F)(F)F)c2)n1)NNc1cnccn1` , system A375?
6.95

One more compound: `O=C(/C=C\n1cnc(-c2cc(C(F)(F)F)cc(C(F)(F)F)c2)n1)N1CC(F)(F)C1`
6.63

Continuing:
Please tell me: pIC50 of `COc1cc(-c2ncn(/C=C\C(=O)OC(C)C)n2)cc(C(F)(F)F)c1` , system A375?
6.83

---

# System: HEM-l
# Assay Procedure: Apoptosis via Annexin V/PI staining, flow cytometry
# Format: cell-based
# Test Conditions: Homo sapiens, Melanocyte, HEM-l primary melanocytes, 72 hr treatment
Readout Label: IC50 (µM)
Supply the numeric figure in µM, leaving out any unit text.

Please tell me: IC50 of `COc1cc(-c2ncn(/C=C\C(=O)OC(C)C)n2)cc(C(F)(F)F)c1` , system HEM-l?
3.17

---

# System: CHL-1
# Assay Procedure: Apoptosis via Annexin V/PI staining, flow cytometry
# Type: cell-based
# Test Conditions: Homo sapiens, CHL-1, 72 hr treatment
# Experimental: Phosphatidyl serine exposure was assessed in tumor cells and melanocytes by flow cytometry using APC-Annexin V and propidium iodide (PI; BD Pharmingen, San Diego, CA) as previously described. […] Changes in tumor volumes were analyzed using a two-sample t-test to evaluate the difference from first day of treatment to the last for A375 xenografts (day 17), and from day 1 to day 10 for CHL-1 xenografts as day 10 marks the first mouse sacrificed when 1500 mm^3 tumor volume was reached. […]
Measured pIC50 by item
The read-out pIC50 is expressed as -log10 of concentration in moles per litre.

Recorded pIC50, per entry:
Please tell me: pIC50 of `COc1cc(-c2ncn(/C=C\C(=O)OC(C)C)n2)cc(C(F)(F)F)c1` , system CHL-1?
5.62

One more compound: `O=C(/C=C\n1cnc(-c2cc(C(F)(F)F)cc(C(F)(F)F)c2)n1)NNc1cnccn1`
5.11

Now take the following compound into account.
Please tell me: pIC50 of `O=C(/C=C\n1cnc(-c2cc(C(F)(F)F)cc(C(F)(F)F)c2)n1)N1CC(F)(F)C1` , system CHL-1?
5.21

---

# System: A375
# Assay Procedure: Cellular growth assay (MTS), 72 h
# Format: cell-based, human
# Test Conditions: A375, 72 hr treatment, read-out: Growth Inhibition IC50
Readout Label: IC50 (nM)
Supply the numeric figure in nM, leaving out any unit text.

Quick check: IC50 of `COc1cc(-c2ncn(/C=C\C(=O)OC(C)C)n2)cc(C(F)(F)F)c1` ?
45.9

---

# System: FO-1
# Assay Procedure: Cellular growth assay (MTS), 72 h
# Format: cell-based, human
# Test Conditions: FO-1, 72 hr treatment, read-out: Growth Inhibition IC50
Readout Label: IC50 (nM)
Supply the numeric figure in nM, leaving out any unit text.

Quick check: IC50 of `COc1cc(-c2ncn(/C=C\C(=O)OC(C)C)n2)cc(C(F)(F)F)c1` ?
32.1
